# System: Saccharomyces cerevisiae
# Protocol Notes: protein stability index of tFT-peptide fusion (C-terminal peptide) (PSI (0-1 scale)); higher = more stable (slower turnover)
# Test Context: genetic background: wild type; temperature: 30 C
# key: entry, value: protein stability index
Please give the numeric answer without any surrounding text.

Example sequences with recorded protein stability index:
KNGYGNSNASWW [DBP1 C-terminal 12 aa]	0.691
DFVDMYQTEHSG [MTF1 C-terminal 12 aa]	0.73
THQKKIAKKKHQ [YPR015C C-terminal 12 aa]	0.695
CVDCGTVVNNFR [LAF1 C-terminal 12 aa]	0.688
VKDFYKRLETLK [RRM3 C-terminal 12 aa]	0.704
DIGKKKYSHSSN [RER1 C-terminal 12 aa]	0.686

Then there is this sequence:
Please report the recorded protein stability index for SLPRQAGGRKKK [GLC7 C-terminal 12 aa] .
0.668

----------
# Test system: Saccharomyces cerevisiae
# Protocol Notes: protein stability index of tFT-peptide fusion (C-terminal peptide) (PSI (0-1 scale)); higher = more stable (slower turnover)
# Test Context: genetic background: cdc53-1; temperature: 37 C
We use 0.5 as the dividing line for protein stability index: on or above the line is MET, below is NOT MET.

HALCLSVYVSAH	NOT MET
ENKGGNQKRRKK	MET
WNSQGVFILAKC	MET

Please indicate if the recorded protein stability index for VFGWWSVVLRVA meets or exceeds 0.5.
NOT MET

Please indicate if the recorded protein stability index for CFVFYALFGFAV meets or exceeds 0.5.
NOT MET

Please indicate if the recorded protein stability index for YNTVALRITLIT meets or exceeds 0.5.
MET

Please indicate if the recorded protein stability index for VSSFLLPFCLLF meets or exceeds 0.5.
MET

Please indicate if the recorded protein stability index for GGGVWWGVLVLG meets or exceeds 0.5.
NOT MET

Please indicate if the recorded protein stability index for GVWSLDWFLLVW meets or exceeds 0.5.
NOT MET

----------
# System: Saccharomyces cerevisiae
# Protocol Notes: protein stability index of tFT-peptide fusion (C-terminal peptide) (PSI (0-1 scale)); higher = more stable (slower turnover)
# Test Context: genetic background: wild type; temperature: 37 C
Endpoint Label: protein stability index
Please give the numeric answer without any surrounding text.

Example sequences with recorded protein stability index:
RWRLWVGWGVVG	0.533
RSPIRYPPVVLS	0.69
VRVWLLACASKG	0.361
RDRHFKIQTCIM	0.515
FVSFTVSFSVVV	0.382

Please report the recorded protein stability index for ACLVAVWRWVFV .
0.0704

Please report the recorded protein stability index for WAIVVLVCFLRL .
0.362

----------
# Test system: Saccharomyces cerevisiae
# Protocol Notes: protein stability index of tFT-peptide fusion (C-terminal peptide) (PSI (0-1 scale)); higher = more stable (slower turnover)
# Test Context: genetic background: wild type; temperature: 30 C
Endpoint Label: protein stability index
Please give the numeric answer without any surrounding text.

Example sequences with recorded protein stability index:
LVCSSVALLSVL	0.593
GLGGGVGGWLVV	0.705
ALGHAKDSVYGM	0.679
PPPPSHPSPPPP	0.654
KKRGKNSKAQRE	0.694
ELLHMAAGLGGR	0.643
AVAIGQGLSAGV	0.686
RPSLPPSPPPPP	0.848
RAAFNPCYTIDF	0.729
PFLRLLQTVGST	0.593

Please report the recorded protein stability index for RKKENRYKIEVK .
0.68

Please report the recorded protein stability index for RQRSTGGISNRS .
0.718

Please report the recorded protein stability index for PERAPASRWTLS .
0.736

Please report the recorded protein stability index for GRGVVGLWVSGT .
0.699

Please report the recorded protein stability index for LEYRSCDFIDRS .
0.625
